B1: library; a variant is named by its letters at N, in order (parent)
chain: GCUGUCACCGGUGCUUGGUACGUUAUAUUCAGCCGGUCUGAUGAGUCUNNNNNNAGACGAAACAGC

Variants of: B1
Test: normalized RNA/DNA level without ligand (relative to sTRSVctl = 100) (log10 (% of sTRSVctl)); HEK293T overexpressing SLC46A1; higher = less ribozyme self-cleavage, higher mRNA level
Settings: without (6R,S)-folinic acid; ligand present: no
Tag: y if measured normalized RNA/DNA level without ligand (log10) is not below 2, n if it is.

QUERY: Hi team, for `GCUGUCACCGGUGCUUGGUACGUUAUAUUCAGCCGGUCUGAUGAGUCUAUGGCGAGACGAAACAGC` , is the recorded normalized RNA/DNA level without ligand (log10) at or above 2?
RESULT: n

QUERY: // inclusive: normalized RNA/DNA level without ligand (log10) at least 2? input: `GCUGUCACCGGUGCUUGGUACGUUAUAUUCAGCCGGUCUGAUGAGUCUAAUAGGAGACGAAACAGC`
RESULT: n

QUERY: Evaluate `GCUGUCACCGGUGCUUGGUACGUUAUAUUCAGCCGGUCUGAUGAGUCUCUCCCAAGACGAAACAGC` : normalized RNA/DNA level without ligand (log10) at minimum 2?
RESULT: y

QUERY: State whether the measured normalized RNA/DNA level without ligand (log10) reaches 2, counting equality as reaching it, for `GCUGUCACCGGUGCUUGGUACGUUAUAUUCAGCCGGUCUGAUGAGUCUAUGGAGAGACGAAACAGC`
RESULT: n

QUERY: Item `GCUGUCACCGGUGCUUGGUACGUUAUAUUCAGCCGGUCUGAUGAGUCUUGGCCCAGACGAAACAGC` with normalized RNA/DNA level without ligand (log10) of 2 or above?
RESULT: y

QUERY: Hello, I need to know if `GCUGUCACCGGUGCUUGGUACGUUAUAUUCAGCCGGUCUGAUGAGUCUUGCCUCAGACGAAACAGC` has measured normalized RNA/DNA level without ligand (log10) not below 2. Thanks!
RESULT: y

QUERY: Identify whether the reported normalized RNA/DNA level without ligand (log10) of the following variant is 2 or greater: `GCUGUCACCGGUGCUUGGUACGUUAUAUUCAGCCGGUCUGAUGAGUCUAGUUAGAGACGAAACAGC`
RESULT: n

QUERY: Is normalized RNA/DNA level without ligand (log10) for `GCUGUCACCGGUGCUUGGUACGUUAUAUUCAGCCGGUCUGAUGAGUCUAUGGUAAGACGAAACAGC` at or above 2?
RESULT: n

QUERY: I'd appreciate it if you could say whether `GCUGUCACCGGUGCUUGGUACGUUAUAUUCAGCCGGUCUGAUGAGUCUUGAAUCAGACGAAACAGC` has normalized RNA/DNA level without ligand (log10) at least equal to 2.
RESULT: y

QUERY: Check if normalized RNA/DNA level without ligand (log10) >= 2 (inclusive). Item: `GCUGUCACCGGUGCUUGGUACGUUAUAUUCAGCCGGUCUGAUGAGUCUUUUGAGAGACGAAACAGC`
RESULT: n

QUERY: Decide: is the reported value of normalized RNA/DNA level without ligand (log10) for `GCUGUCACCGGUGCUUGGUACGUUAUAUUCAGCCGGUCUGAUGAGUCUUGUUUCAGACGAAACAGC` equal to or greater than 2?
RESULT: y

QUERY: Kindly determine if normalized RNA/DNA level without ligand (log10) recorded for `GCUGUCACCGGUGCUUGGUACGUUAUAUUCAGCCGGUCUGAUGAGUCUGCUUGGAGACGAAACAGC` is above or exactly 2.
RESULT: n

QUERY: Identify whether the reported normalized RNA/DNA level without ligand (log10) of the following variant is 2 or greater: `GCUGUCACCGGUGCUUGGUACGUUAUAUUCAGCCGGUCUGAUGAGUCUCAUGGGAGACGAAACAGC`
RESULT: n

QUERY: Exam item: decide whether the reported normalized RNA/DNA level without ligand (log10) for `GCUGUCACCGGUGCUUGGUACGUUAUAUUCAGCCGGUCUGAUGAGUCUGGCGUAAGACGAAACAGC` is at least 2.
RESULT: y

QUERY: Is normalized RNA/DNA level without ligand (log10) at least 2? Consider `GCUGUCACCGGUGCUUGGUACGUUAUAUUCAGCCGGUCUGAUGAGUCUUUGGCUAGACGAAACAGC`
RESULT: y

QUERY: Is normalized RNA/DNA level without ligand (log10) at least 2? Consider `GCUGUCACCGGUGCUUGGUACGUUAUAUUCAGCCGGUCUGAUGAGUCUCCGCCUAGACGAAACAGC`
RESULT: y

QUERY: # check: normalized RNA/DNA level without ligand (log10) of `GCUGUCACCGGUGCUUGGUACGUUAUAUUCAGCCGGUCUGAUGAGUCUUCUUAGAGACGAAACAGC` is greater than or equal to 2
RESULT: n

# credit: the supplement of paper PMC6757056
